Experiment: qHTS Counterscreen for compound interference against the NCATS DSHEA and TCM libraries (AID 1919978);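 note: compounds preincubated with 1 µM D-luciferin or buffer before detection reagent; % of control where 0% means no effect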
Details: firefly luciferase detection reagent interference, luminescence
Known max response of a selection of molecules
Please respond with the number in % and leave the unit unwritten.

# count of solved cases: 4
> print(dat)
                                   molecule  measured.number
1  COC(=O)C1=CO[C@@H](C)[C@@H]2CN3CC[C@@]4(C(=O)Nc5ccccc54)[C@@H]3CC12 (stereo not given in full)             3.44
2  COc1ccc2c(c1O)-c1c(OC)c(OC)cc3c1[C@H](C2)N(C)CC3             1.18
3  CC[C@@H]1CN2CC[C@]3(C(=O)Nc4ccccc43)[C@@H]2C[C@@H]1/C(=C\OC)C(=O)OC            -3.13
4                 CCCCCCCCCCCCCCCCCCCC(=O)O            0.104

Moving on to the next molecule.
get_value(item= `O=S(=O)(O)O` , readout=max response) returns -1.96
